Molecular target: Bovine liver glutamate dehydrogenase (Bos taurus)
Assay: Fluorescence titrations of reduced cofactor binding
Settings: NADPH, +200mM norvaline, pH 8.0
pKd: −log10 of the molar value.
attribute_measured: pKd

>>> reported_value("NC(=O)C1=CN([C@@H]2O[C@H](COP(=O)(O)OP(=O)(O)OC[C@H]3O[C@@H](n4cnc5c(N)ncnc54)[C@H](OP(=O)(O)O)[C@@H]3O)[C@@H](O)[C@H]2O)C=CC1")
5.13

* * *

Target: Bovine liver glutamate dehydrogenase (Bos taurus, UniProt P00366)
Sequence (P00366 58-558): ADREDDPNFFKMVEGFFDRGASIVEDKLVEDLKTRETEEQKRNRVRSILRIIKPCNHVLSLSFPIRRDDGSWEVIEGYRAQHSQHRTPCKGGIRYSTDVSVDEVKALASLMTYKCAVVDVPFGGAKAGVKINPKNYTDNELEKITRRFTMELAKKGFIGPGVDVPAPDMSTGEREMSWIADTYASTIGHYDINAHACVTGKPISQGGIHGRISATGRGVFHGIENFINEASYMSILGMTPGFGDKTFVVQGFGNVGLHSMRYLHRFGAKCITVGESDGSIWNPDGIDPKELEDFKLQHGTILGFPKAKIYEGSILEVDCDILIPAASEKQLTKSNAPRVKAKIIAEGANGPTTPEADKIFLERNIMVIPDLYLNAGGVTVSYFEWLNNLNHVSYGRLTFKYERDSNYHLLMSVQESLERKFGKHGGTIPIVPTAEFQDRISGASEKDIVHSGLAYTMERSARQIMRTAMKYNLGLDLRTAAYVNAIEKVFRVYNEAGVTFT
Assay: Fluorescence titrations of reduced cofactor binding
Details: NADPH, +200mM norvaline + 100 μM zinc, pH 8.0
attribute_measured: Kd

>>> reported_value("NC(=O)C1=CN([C@@H]2O[C@H](COP(=O)(O)OP(=O)(O)OC[C@H]3O[C@@H](n4cnc5c(N)ncnc54)[C@H](OP(=O)(O)O)[C@@H]3O)[C@@H](O)[C@H]2O)C=CC1")
"9.27 µM"

Every entry's value here was drawn from paper PMC3184404.
